EXPERIMENT_DESCRIPTION: Comments (NB not yet translated). [column 'COMMENTAIRES' in source]
EXPERIMENTAL_PARAMETERS: human
ASSAY_ENDPOINT: Hepatotoxicity (comment)

Cc1cc(Br)c(O)c2ncccc12
CHOLANGITE
CN1CCN(C2=Nc3cc(Cl)ccc3Nc3ccccc32)CC1
CHOLANGITE
C=C[C@H]1C[N@@]2CC[C@H]1C[C@H]2[C@H](O)c1ccnc2ccc(OC)cc12
AC_ANTI-N
CC(C)C(=O)Nc1ccc([N+](=O)[O-])c(C(F)(F)F)c1 [FLUTAMIDE]
AC_ANTI-N

====

Entries and their measured Hepatotoxicity (severe hepatitis) follow.
EXPERIMENTAL_PARAMETERS: human
Keep the answer to the number alone.

Provide Hepatotoxicity (severe hepatitis) value for the following molecule: O=c1cc(Cc2ccccc2)[nH]c(=S)[nH]1 [BENZYLTHIOURACIL]
0

Provide Hepatotoxicity (severe hepatitis) value for the following molecule: CC(=O)OCC1=C(C(=O)O)N2C(=O)[C@@H](NC(=O)CC#N)[C@H]2SC1
0

====

EXPERIMENTAL_PARAMETERS: human, Liver
ASSAY_ENDPOINT: Hepatotoxicity (cytolytic)

Provide Hepatotoxicity (cytolytic) value for the following compound: Cc1cccc(Nc2ccccc2C(=O)O)c1C [MEFENAMIC ACID]
2

Provide Hepatotoxicity (cytolytic) value for the following compound: CO[C@@]1(NC(=O)CSC[C@@H](N)C(=O)O)C(=O)N2C(C(=O)O)=C(CSc3nnnn3C)CS[C@@H]21 [CEFMINOX]
0

Provide Hepatotoxicity (cytolytic) value for the following compound: O=C1NC(=O)C(c2ccccc2)(c2ccccc2)N1 [PHENYTOIN]
53

Provide Hepatotoxicity (cytolytic) value for the following compound: O=C1NS(=O)(=O)c2ccccc21 [SACCHARIN]
1

====

EXPERIMENTAL_PARAMETERS: human, serum
Entries and their measured Hepatotoxicity (acute) follow.
Keep the answer to the number alone.

Worked examples, 3 compounds total:
CC(C)Nc1cccnc1N1CCN(C(=O)c2cc3cc(NS(C)(=O)=O)ccc3[nH]2)CC1
0
CO[C@@]1(NC(=O)C2SC(=C(C(N)=O)C(=O)O)S2)C(=O)N2C(C(=O)O)=C(CSc3nnnn3C)CS[C@@H]21 (some centres undefined)
0
CC(C)c1cccc(C(C)C)c1O
2

Provide Hepatotoxicity (acute) value for the following compound: O=C1CC2(CCCC2)CC(=O)N1CCCCN1CCN(c2nsc3ccccc23)CC1
0

Provide Hepatotoxicity (acute) value for the following compound: NNC(=O)c1ccncc1
91

Provide Hepatotoxicity (acute) value for the following compound: CC1(C)S[C@@H]2[C@H](NC(=O)[C@H](NC(=O)N3CCN(S(C)(=O)=O)C3=O)c3ccccc3)C(=O)N2[C@H]1C(=O)O
1

Provide Hepatotoxicity (acute) value for the following compound: CCOc1ccccc1OCC1CNCCO1 (centres undefined)
1

Provide Hepatotoxicity (acute) value for the following compound: N[C@@H](Cc1ccc(N(CCCl)CCCl)cc1)C(=O)O
2

Provide Hepatotoxicity (acute) value for the following compound: COCCc1ccc(OCC(O)CNC(C)C)cc1 (centres undefined)
1

====

EXPERIMENTAL_PARAMETERS: human, serum
Entries and their measured Hepatotoxicity (acute) follow.
Keep the answer to the number alone.

Worked examples, 3 molecules total:
Clc1ccc2c(c1)C(N1CCNCC1)=Nc1ccccc1O2
2
CN1C[C@H](C(=O)N[C@]2(C)O[C@@]3(O)[C@@H]4CCCN4C(=O)[C@H](Cc4ccccc4)N3C2=O)C=C2c3cccc4[nH]cc(c34)C[C@H]21
0
CC(C)CN(C[C@@H](O)[C@H](Cc1ccccc1)NC(=O)O[C@H]1CCOC1)S(=O)(=O)c1ccc(N)cc1
3

Provide Hepatotoxicity (acute) value for the following molecule: Cc1cn([C@H]2C[C@H](N=[N+]=[N-])[C@@H](CO)O2)c(=O)[nH]c1=O
25

Provide Hepatotoxicity (acute) value for the following molecule: CCC(=O)O[C@@H]1CC(=O)O[C@H](C)C/C=C/C=C/[C@H](O)[C@H](C)C[C@H](CC=O)[C@H](O[C@@H]2O[C@H](C)[C@@H](O[C@H]3C[C@@](C)(O)[C@@H](OC(=O)CC)[C@H](C)O3)[C@H](N(C)C)[C@H]2O)[C@H]1OC
1

Provide Hepatotoxicity (acute) value for the following molecule: O=c1ccc2ccccc2o1
16

Provide Hepatotoxicity (acute) value for the following molecule: CN(C)CCOC1=Cc2ccccc2Sc2ccc(Cl)cc21 [ZOTEPINE]
0

Source of measurements: ChEMBL document CHEMBL3137667
